molecular target: hGLP-1R (Homo sapiens, UniProt P43220); experiment: cell-based or functional assay
Sequence (P43220 24-463): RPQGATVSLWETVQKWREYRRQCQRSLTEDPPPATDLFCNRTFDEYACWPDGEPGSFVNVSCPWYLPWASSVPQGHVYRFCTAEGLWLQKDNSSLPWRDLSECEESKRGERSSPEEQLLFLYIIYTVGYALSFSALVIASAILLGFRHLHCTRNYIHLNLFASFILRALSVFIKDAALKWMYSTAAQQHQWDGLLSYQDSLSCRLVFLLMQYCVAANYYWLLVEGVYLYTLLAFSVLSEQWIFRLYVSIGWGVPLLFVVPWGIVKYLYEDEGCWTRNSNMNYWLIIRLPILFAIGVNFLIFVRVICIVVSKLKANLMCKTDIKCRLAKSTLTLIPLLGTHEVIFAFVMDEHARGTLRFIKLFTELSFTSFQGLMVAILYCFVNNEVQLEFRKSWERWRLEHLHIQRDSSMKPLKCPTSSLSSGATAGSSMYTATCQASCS
Starred links: 1 amine or outer side, 2 acyl side, 3 side chain; linkers in the order of their positions; H or OH if unused. Non-standard residues stand in square brackets, D forms with d. Groups on a side chain read outwards from the residue. No end group written: not given here. *: point of attachment. C20 diacid = O=C(O)CCCCCCCCCCCCCCCCCCC(=O)*; C18 diacid = O=C(O)CCCCCCCCCCCCCCCCC(=O)*; Phe(4-CN) = N#Cc1ccc(C[C@H](N)C(=O)O)cc1; αMePhe(2-F) = C[C@](N)(Cc1ccccc1F)C(=O)O; γGlu = O=C(O)[C@H](CCC(=O)[*:2])N[*:1]; αMeL = CC(C)C[C@](C)(N)C(=O)O; Dab = NCC[C@H](N)C(=O)O; AEEA = NCCOCCOCC(=O)O; Aib = CC(C)(N)C(=O)O
Item-by-item account of Relative cAMP EC50

binder: Y[Aib]QGTFTSDYSI[αMeL]LDKQAAK([AEEA-AEEA-γGlu-C20 diacid])AFVEWLLA[Aib]GPSSGEPPPSEG-NH2 [Example 317]
Relative cAMP EC50 [nM]: 1.32
//
binder: Y[Aib]QGT[αMePhe(2-F)]TSD[Phe(4-CN)]SILLDKQAQKAFIEYLLEGGPSSGEPPPSEG-NH2 (not fully specified (residue 20)) [Example 352]
Relative cAMP EC50 [nM]: 0.967
//
binder: Y[Aib]QGTFTSDYSI[αMeL]LDKQAAKQFVEWLLA[Aib]GPSSGEPPPSEG (not fully specified (residue 20)) [Example 329]
Relative cAMP EC50 [nM]: 0.926
//
binder: Y[Aib]QGTFTSDFS[Dab][αMeL]LDKK([AEEA-γGlu-C18 diacid])AQ[Aib]AFIEYLLE[Aib]GPSSGAPPPSGS-NH2 (ends and bridges not checked) [Example 133]
Relative cAMP EC50 [nM]: 3.6
//
binder: YXQGTXTSDXXIXLDXKAQXEFIEXLVEGGPSSGEPPPEGE (Aib, αMeF(2F), 4Pal, Me4Pal, Orn; lipidated Lys; C-terminal amide; synthetic construct; SITE 2: note = 2-Aminoisobutyric Acid; SITE 6: note = alpha-methyl-2-fluoro-L-phenylalanine; SITE 10: note = 3-(4-Pyridyl)-L-alanine; SITE 11: note = alpha-methyl-L-serine; SITE 13: note = alpha-methyl-leucine; SITE 16: note = L-ornithine; SITE 17: note = Lysine is chemically mo) [Example 1159]
Relative cAMP EC50 [nM]: 0.45
//
binder: YXQGTFTSDFSXXLDKKAQXAFIEYLLEXGPSSGAPPPSGE (synthetic construct; SITE 2: note = 2-Aminoisobutyric Acid; SITE 12: note = L-ornithine; SITE 13: note = alpha-methyl-leucine; SITE 17: note = Lysine is chemically modified through conjugation of the epsilon-amino group of the Lysine side chain with (2-[2-(2-Amino-ethoxy)-ethoxy]-acetyl)-(gamma-Glu)) [Example 110]
Relative cAMP EC50 [nM]: 2.99
//
binder: YXQGTFTSDFSKXLDKKAQXAFIQYLLAGGPSSGEPPPSEG (Aib, αMeL, acylated Lys, C-terminal amide; synthetic construct; SITE 2: note = 2-Aminoisobutyric Acid; SITE 13: note = alpha-methyl-leucine; SITE 17: note = Lysine is chemically modified through conjugation of the epsilon-amino group of the Lysine side chain with (2-[2-(2-Amino-ethoxy)-ethoxy]-acetyl)-(gamma-Glu)-CO-(CH2) 18-CO2H; SITE 20: n) [Example 27]
Relative cAMP EC50 [nM]: 2.33
//
binder: YXQGTXTSDYSIXLDXKAQXAFIEYLEEGGPSSGAPPPE (not fully specified; synthetic construct; SITE 2: note = 2-Aminoisobutyric Acid; SITE 6: note = alpha-methyl-L-phenylalanine; SITE 13: note = alpha-methyl-leucine; SITE 16: note = L-ornithine; SITE 17: note = Lysine is chemically modified through conjugation of the epsilon-amino group of the Lysine side chain with (2-[2)) [Example 397]
Relative cAMP EC50 [nM]: 0.2
//
binder: YXQGTFTSDXXQXLDXKAQXQFIQXLIEGGPSSGEPPPSGGGE (not fully specified; non-natural residues, lipidated Lys, C-terminal amide; synthetic construct; SITE 2: note = 2-Aminoisobutyric Acid; SITE 10: note = 3-(4-Pyridyl)-L-alanine; SITE 11: note = alpha-methyl-L-serine; SITE 13: note = alpha-methyl-leucine; SITE 16: note = L-ornithine; SITE 17: note = Lysine is chemically modified through conjugation of the epsilon-amino group) [Example 1188]
Relative cAMP EC50 [nM]: 1.01
//
binder: Y[Aib]QGTFTSDYSK[αMeL]LDKK([AEEA-γGlu-C20 diacid])AQQAFVQWLIEGGPSSGEPPPSEG-NH2 [Example 315]
Relative cAMP EC50 [nM]: 0.508
//
binder: YXQGTXTSDXSIXLDKKAQXXFIEYLEEGGPSSGEPPPSGSEE (non-natural residues; C18 diacid-(γ-Glu)2 acyl on Lys; C-terminal amide; synthetic construct; SITE 2: note = 2-Aminoisobutyric Acid; SITE 6: note = alpha-methyl-2-fluoro-L-phenylalanine; SITE 10: note = 3-(4-Pyridyl)-L-alanine; SITE 13: note = alpha-methyl-leucine; SITE 17: note = Lysine is chemically modified through conjugation of the epsilon-amino group of the Lysine) [Example 635]
Relative cAMP EC50 [nM]: 0.625
//
binder: YXQGTFTSDFSXXLDKKAQXAFIEYLLEGGPSSGXPPPGGS (not fully specified; synthetic construct; SITE 2: note = 2-Aminoisobutyric Acid; SITE 12: note = L-ornithine; SITE 13: note = alpha-methyl-leucine; SITE 17: note = Lysine is chemically modified through conjugation of the epsilon-amino group of the Lysine side chain with (gamma-Glu)2-CO-(CH2)16-CO2H; SITE 20: note = 2-Am) [Example 771]
Relative cAMP EC50 [nM]: 4.38
//
binder: YXQGTFTSDFSXXLDKKAQXAFIEYLLEXGPSSGAPPPGEG (synthetic construct; SITE 2: note = 2-Aminoisobutyric Acid; SITE 12: note = L-ornithine; SITE 13: note = alpha-methyl-leucine; SITE 17: note = Lysine is chemically modified through conjugation of the epsilon-amino group of the Lysine side chain with (2-[2-(2-Amino-ethoxy)-ethoxy]-acetyl)2-(gamma-Glu)) [Example 70]
Relative cAMP EC50 [nM]: 2.71
//
binder: YXQGTFTSDXXQXLDXKAQXQFIQXLIEXGPSSGAPPPSGGGE (not fully specified; Aib, 4Pal, Me4Pal, alpha-methyl residues, Orn, lipidated Lys, amide; synthetic construct; SITE 2: note = 2-Aminoisobutyric Acid; SITE 10: note = 3-(4-Pyridyl)-L-alanine; SITE 11: note = alpha-methyl-L-serine; SITE 13: note = alpha-methyl-leucine; SITE 16: note = L-ornithine; SITE 17: note = Lysine is chemically modified through conjugation of the epsilon-amino group) [Example 1186]
Relative cAMP EC50 [nM]: 0.594
//
binder: YXQGTFTSDFSXXLDKKAQXAFIEYLLEGGPSSGAPPPGGT (non-natural residues; lipidated Lys; synthetic construct; SITE 2: note = 2-Aminoisobutyric Acid; SITE 12: note = L-ornithine; SITE 13: note = alpha-methyl-leucine; SITE 17: note = Lysine is chemically modified through conjugation of the epsilon-amino group of the Lysine side chain with (2-[2-(2-Amino-ethoxy)-ethoxy]-acetyl)-(gamma-Glu)) [Example 197]
Relative cAMP EC50 [nM]: 4.81
